These measurements were taken from PubChem BioAssay AID1117325.

test system: C2C12 WNT3A-conditioned, nuclear beta-catenin; assay: activation of intranuclear CTNNB1 in the C2C12 line, dose-response, cell-based, Wnt-3a conditioned medium, half-maximal inhibitory concentration (AID 1117325)
Calls of active or inactive are those of the source. No rule for the calls is given here. *1 amine or outer side, *2 acyl side, *3 side chain or, on linkers, in order; H or OH if unused. Where a SMILES comes first, the peptide text is derived from it. Bridges are numbered along the chain shown (N, C = ends). Roman numbers before positions name the chains, in order. [ ]: non-standard residue; d: D form. Actinocin(9to1) = Cc1c2oc3c(C)ccc(C(=O)[*:1])c3nc-2c(C(=O)[*:2])c(N)c1=O; NMeV = CN[C@H](C(=O)O)C(C)C; Sar = CNCC(=O)O
API: response.call in True (active), False (inactive)

Some entries whose results are on file:
O=C1c2c(O)ccc(O)c2C(=O)c2c(NCCNCCO)ccc(NCCNCCO)c21: True
Cc1c2oc3c(C)ccc(C(=O)N[C@@H]4C(=O)N[C@H](C(C)C)C(=O)N5CCC[C@H]5C(=O)N(C)CC(=O)N(C)[C@@H](C(C)C)C(=O)O[C@@H]4C)c3nc-2c(C(=O)N[C@@H]2C(=O)N[C@H](C(C)C)C(=O)N3CCC[C@H]3C(=O)N(C)CC(=O)N(C)[C@@H](C(C)C)C(=O)O[C@@H]2C)c(N)c1=O (I: T[dV]P[Sar][NMeV] / II: T[dV]P[Sar][NMeV]; ester I:1-I:C, II:1-II:C; linker I:N-II:N via Actinocin(9to1)): True
[O-][n+]1ccccc1SSc1cccc[n+]1[O-]: True
CCN(CC)CCNc1ccc(CO)c2sc3ccccc3c(=O)c12: False
COc1cc(NCc2ccc3nc(N)nc(N)c3c2C)cc(OC)c1OC: True

Prompt: How did this test come out for C[n+]1c2cc(N)ccc2cc2ccc(N)cc21 (tested in a mixture with another compound) ?
Completion: False

Prompt: Moving on to CC(=O)[C@]1(O)Cc2c(O)c3c(c(O)c2[C@@H](O[C@H]2C[C@H](N)[C@H](O)[C@H](C)O2)C1)C(=O)c1ccccc1C3=O
Completion: True

Prompt: Moving on to C=CC(=O)Nc1cc2c(Nc3ccc(F)c(Cl)c3)ncnc2cc1OCCCN1CCOCC1
Completion: True

----------
test system: C2C12 WNT3A-conditioned, nuclear beta-catenin; experiment: activation of intranuclear CTNNB1 in the C2C12 line, dose-response, cell-based, Wnt-3a conditioned medium, half-maximal inhibitory concentration (AID 1117325)
Calls of active or inactive are those of the source. How the calls were made is not given here.
API: response.call in active, inactive

Cc1nc(Nc2ncc(C(=O)Nc3c(C)cccc3Cl)s2)cc(N2CCN(CCO)CC2)n1: active
CCCCC1C(=O)N(c2ccccc2)N(c2ccc(O)cc2)C1=O (configuration not stated): inactive
OCCN1CCN(CCCN2c3ccccc3Sc3ccc(Cl)cc32)CC1: inactive
CC[C@]1(O)C[C@H]2CN(CCc3c([nH]c4ccccc34)[C@@](C(=O)OC)(c3cc4c(cc3OC)N(C=O)[C@H]3[C@@](O)(C(=O)OC)[C@H](OC(C)=O)[C@]5(CC)C=CCN6CC[C@]43[C@@H]65)C2)C1: active
O=C(Nc1ccc([N+](=O)[O-])cc1Cl)c1cc(Cl)ccc1O: active
COC(=O)Nc1nc2ccc(C(=O)C3CC3)cc2[nH]1: active

Now consider the entry below.
Prompt: How did this test come out for Cc1cc(O)c2ccccc2c1O ?
Completion: active

----------
tested on: C2C12 WNT3A-conditioned, nuclear beta-catenin; assay: activation of intranuclear CTNNB1 in the C2C12 line, dose-response, cell-based, Wnt-3a conditioned medium, half-maximal inhibitory concentration (AID 1117325)
Activity calls are given as the source filed them. No rule for the calls is given here.
API: response.call in label 1 for active, label 0 for inactive

Some entries whose results are on file:
Cc1ccccc1C(=O)Nc1ccc(C(=O)N2CCCC(N(C)C)c3ccccc32)cc1 (stereo not given): label 1
Cc1cc(C2CCCCC2)n(O)c(=O)c1: label 0
c1ccc2c(c1)Sc1ccccc1N2CC1CN2CCC1CC2 (stereo not given): label 0

Prompt: How did this test come out for CCCCCCCCCCCCCCC[C@H](O)[C@@H](N)CO ?
Completion: label 0

Prompt: Moving on to C=C(C)[C@H]1Cc2c(ccc3c2O[C@@H]2COc4cc(OC)c(OC)cc4[C@@H]2C3=O)O1
Completion: label 1
